System: Crude diglycosidase
procedureSummary: Examination of substrate concentration in the conversion into isoflavone aglycons by diglycosidase using soybean materials;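 also: percent of the isoflavone family total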
Format: biochemical, Penicillium multicolor IAM7153
conditionParameters: soymilk, substrate concentration 5%, heat treatment of enzyme no, reaction time 3 h
The following molecules are listed with their measured Decomposition efficiency: ratio of each glycoside/aglycon within its isoflavone family values.
Response body: numeric value in %, unit text excluded.

See these solved cases before continuing.
>  <molecule>
COc1cc2c(=O)c(-c3ccc(O)cc3)coc2cc1O [glycitein]

>  <systemUnderTest>
Crude diglycosidase

>  <unit>
%

>  <reportedMeasurement>
92.5

$$$$
>  <molecule>
O=C(O)CC(=O)OC[C@H]1O[C@@H](Oc2ccc3c(=O)c(-c4ccc(O)cc4)coc3c2)[C@H](O)[C@@H](O)[C@@H]1O [malonyldaidzin, 6″-O-malonyldaidzin]

>  <systemUnderTest>
Crude diglycosidase

>  <unit>
%

>  <reportedMeasurement>
15.9

$$$$

Consider now this further molecule.
Problem: Requested field: Decomposition efficiency: ratio of each glycoside/aglycon within its isoflavone family. Item: COc1cc2c(=O)c(-c3ccc(O)cc3)coc2cc1O[C@@H]1O[C@H](COC(=O)CC(=O)O)[C@@H](O)[C@H](O)[C@H]1O [malonylglycitin, 6″-O-malonylglycitin]
Result: 7.5

* * *

Test system: Crude diglycosidase
procedureSummary: Examination of pH in the conversion into isoflavone aglycons by diglycosidase using soybean materials
Assay type: biochemical, Penicillium multicolor IAM7153
conditionParameters: pH6.5, heat treatment of enzyme no, reaction time 0 h, 55° C.
propertyLabel: Decomposition efficiency of glycitin family in roasted soy flour
Form: value (number only, do not type unit).

>  <smilesRecord>
COc1cc2c(=O)c(-c3ccc(O)cc3)coc2cc1O

>  <reportedMeasurement>
8.8

$$$$
>  <smilesRecord>
COc1cc2c(=O)c(-c3ccc(O)cc3)coc2cc1O[C@@H]1O[C@H](CO)[C@@H](O)[C@H](O)[C@H]1O

>  <reportedMeasurement>
55.9

$$$$

Problem: Requested field: Decomposition efficiency of glycitin family in roasted soy flour. Item: COc1cc2c(=O)c(-c3ccc(O)cc3)coc2cc1O[C@@H]1O[C@H](COC(C)=O)[C@@H](O)[C@H](O)[C@H]1O
Result: 35.4

* * *

Test system: Diglycosidase derived from P. multicolor
procedureSummary: Reactivity toward various isoflavone glycosides (HPLC)
Format: biochemical, Penicillium multicolor
Set-up: unit not given here
conditionParameters: Reaction time 0 h; 55 °C, pH 4.0
propertyLabel: aglycon

See these solved cases before continuing.
>  <smilesRecord>
O=C(O)CC(=O)OC[C@H]1O[C@@H](Oc2ccc3c(=O)c(-c4ccc(O)cc4)coc3c2)[C@H](O)[C@@H](O)[C@@H]1O

>  <systemUnderTest>
Diglycosidase derived from P. multicolor

>  <aglycon>
0

$$$$
>  <smilesRecord>
O=c1c(-c2ccc(O)cc2)coc2cc(O[C@@H]3O[C@H](CO)[C@@H](O)[C@H](O)[C@H]3O)ccc12

>  <systemUnderTest>
Diglycosidase derived from P. multicolor

>  <aglycon>
0.9

$$$$

Problem: Requested field: aglycon. Item: CC(=O)OC[C@H]1O[C@@H](Oc2cc(O)c3c(=O)c(-c4ccc(O)cc4)coc3c2)[C@H](O)[C@@H](O)[C@@H]1O
Result: 0

* * *

System: Crude diglycosidase
procedureSummary: Examination of temperature in the conversion into isoflavone aglycons by diglycosidase using soybean materials
Format: biochemical, Penicillium multicolor IAM7153
Set-up: concentration or dose not given beside the values
conditionParameters: 65 °C; heat treatment of enzyme: no; 0 h
The following compounds are listed with their measured Decomposition efficiency of daidzin family in soymilk values.

>  <smilesRecord>
O=c1c(-c2ccc(O)cc2)coc2cc(O)ccc12

>  <systemUnderTest>
Crude diglycosidase

>  <reportedMeasurement>
9.1%

$$$$

Problem: Requested field: Decomposition efficiency of daidzin family in soymilk. Item: O=c1c(-c2ccc(O)cc2)coc2cc(O[C@@H]3O[C@H](CO)[C@@H](O)[C@H](O)[C@H]3O)ccc12
Result: 34.1%

Problem: Another compound to check: O=C(O)CC(=O)OC[C@H]1O[C@@H](Oc2ccc3c(=O)c(-c4ccc(O)cc4)coc3c2)[C@H](O)[C@@H](O)[C@@H]1O
Result: 56.8%
